# credit: the supplement of paper PMC11061612

Tested on: MS-1 (Small Cell Lung Carcinoma)
Experiment: combination Emax (second highest fraction inhibited in the dose matrix, 72 h); higher = more inhibition; extreme values may be limits of the assay
reported.metric: combination Emax

* Cc1c2c(nn1C)CSCc1cc(n(C)n1)CSc1cc(c3ccccc3c1)OCCCc1c(C(=O)O)n(C)c3c-2c(Cl)ccc13 [AZD5991] + C1CN(CCC1(C(=O)N[C@@H](CCO)C2=CC=C(C=C2)Cl)N)C3=NC=NC4=C3C=CN4 [Capivasertib] (first compound max 1 µM, 7x7, partner max 3 µM) | 0.524
* Cc1c2c(nn1C)CSCc1cc(n(C)n1)CSc1cc(c3ccccc3c1)OCCCc1c(C(=O)O)n(C)c3c-2c(Cl)ccc13 [AZD5991] + C[C@@H]1COCCN1C2=NC(=NC(=C2)C3(CC3)[S@](=N)(=O)C)C4=C5C=CNC5=NC=C4 [AZD6738] (first compound max 1 µM, 7x7, partner max 10 µM) | 0.826
* COc1nnc2ccc(N3CCC(c4ccc(OCCN5CCN(C)C(=O)[C@H]5C)cc4)CC3)nn12 [AZD5153] + CCN(CCO)CCCOc1ccc2c(Nc3cc(CC(=O)Nc4cccc(F)c4)[nH]n3)ncnc2c1 [AZD2811] (first compound max 1 µM, 7x7, partner max 1 µM) | 0.854
* Cc1nc(Nc2ncc(C(=O)Nc3c(C)cccc3Cl)s2)cc(N2CCN(CCO)CC2)n1 [Dasatinib] + CC(=O)Nc1cccc(-n2c(=O)n(C3CC3)c(=O)c3c(Nc4ccc(I)cc4F)n(C)c(=O)c(C)c32)c1 [Trametinib] (first compound max 2 µM, 7x7, partner max 1 µM) | 0.125
* O=C(c1cc(Cc2n[nH]c(=O)c3ccccc23)ccc1F)N1CCN(C(=O)C2CC2)CC1 [Olaparib] + CC1(C)CCC(CN2CCN(c3ccc(C(=O)NS(=O)(=O)c4ccc(NCC5CCOCC5)c([N+](=O)[O-])c4)c(Oc4cnc5[nH]ccc5c4)c3)CC2)=C(c2ccc(Cl)cc2)C1 [Venetoclax] (first compound max 10 µM, 7x7, partner max 1 µM) | 0.453
* N#Cc1cnc(Nc2cc(NC[C@H]3CNCCO3)c(C(F)(F)F)cn2)cn1 [SRA737] + O=c1[nH]cc(F)c(=O)[nH]1 [5-Fluorouracil] (first compound max 10 µM, 7x7, partner max 20 µM) | 0.584
* CN(CCO)CC[C@H](CSc1ccccc1)Nc1ccc(S(=O)(=O)NC(=O)c2ccc(N3CCC([C@@H](O)c4ccccc4-c4ccc(Cl)cc4)CC3)cc2)cc1S(=O)(=O)C(F)(F)F [AZD4320] + Cn1cnc2c(F)c(Nc3ccc(Br)cc3Cl)c(C(=O)NOCCO)cc21 [Selumetinib] (first compound max 1 µM, 7x7, partner max 3 µM) | 0.533
